Target: human TTR (Homo sapiens, UniProt P02766)
pKd: −log10 of the molar value.
reported_property: pKd

INSERT INTO results (compound, measured) VALUES
  ('Cc1n[nH]c(C)c1CCCOc1cc(OCCCCCCNCCOCCn2cc(C[C@H](NC(=O)CCCCC[N+]3=C(C=CC4=CC(=CC=C5N(C)c6ccc(S(=O)(=O)O)cc6C5(C)C)CCC4)C(C)(C)c4cc(S(=O)(=O)[O-])ccc43)C(=O)NCCCCCC(=O)NCCCC[C@H](NC(=O)N[C@@H](CCC(=O)O)C(=O)O)C(=O)O)nn2)cc(C(=O)O)c1 [TFM1]', 6.43),
  ('Cc1n[nH]c(C)c1CCCOc1cc(OCCCCCCN)cc(C(=O)O)c1 [ligand 2]', 7.31);

Recorded values, source paper PMC6607395.
